target: T1, GABARAPL2 (for BLI) (human, UniProt P60520 1-117); assay: BLI; biotinylated LIR peptide immobilized on streptavidin biosensor, ATG8 in solution; 25 mM Tris pH 7.5, 150 mM NaCl, 0.5 mM TCEP, 0.1% Tween20, 1 mg/ml BSA; 25 °C; Kd from response against concentration; conditions: both partners purified
T1 construct: human GABARAPL2 in the pAL plasmid (GST, 3C site)
T1 sequence (P60520 whole entry): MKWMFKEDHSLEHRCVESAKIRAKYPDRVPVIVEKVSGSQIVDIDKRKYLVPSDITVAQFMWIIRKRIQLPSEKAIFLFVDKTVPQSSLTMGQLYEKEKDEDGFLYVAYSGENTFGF
*: point of attachment. Biotin = O=C1N[C@H]2[C@H](CS[C@H]2CCCCC(=O)*)N1; linker = not defined here
readoutName: pKd
Answers are plain numbers, as −log10 of the molar value.

Entry {Biotin-linker}-KEEEEDSTFTNISLADDIDH-NH2 (reading uncertain, SCOC isoform 3 aa 6-25; also called SCOC (WT) LIR domain peptide; SCOC LIR; source: synthetic peptide) [SCOC WT (aa 6–25) LIR peptide] ; pKd = 4.35

Cited source for all entries: paper PMC8202330
